Form field: GI50 (one value per entry).
# Test system: UO-31
# measurement_notes: NCI tumour cell line growth inhibition, 48 h
Activity calls are given as the source filed them. No stated cut-off is given here; in the data, active = GI50 up to about 1.1 µM and inactive = higher.

Example entries and their recorded answers appear below.
compound: c1ccc2c(c1)ccc1ncccc12
value_reported: > 100 µM (inactive)

compound: c1cc(CSP234N5CCN2CCN3CCN4CC5)ccc1CSP123N4CCN1CCN2CCN3CC4
value_reported: 99.8 µM (inactive)

compound: CC1(C)[N+]([O-])=[N+]([O-])C1(C)Br (stereo not drawn)
value_reported: > 100 µM (inactive)

compound: O=C(O)c1cccc(S(=O)(=O)NN2C(=O)CSC2c2c(O)ccc3ccccc23)c1 (stereo not drawn)
value_reported: 33.4 µM (inactive)

compound: Cc1cn(CC2=NC3CCCCC3N2)c(=O)[nH]c1=O (stereo not drawn)
value_reported: > 100 µM (inactive)

compound: CCOC(=O)Cc1nn2c(=O)cc(C)nc2s1
value_reported: > 100 µM (inactive)

compound: COc1cc(Cn2c3ccccc3c3cc(C)cc(OC)c32)cc2c1[nH]c1ccccc12
value_reported: > 25 µM (inactive)

compound: Cc1cc2c(cc1Cl)SC(c1ccccc1)C(=O)NS2(=O)=O (stereo not drawn)
value_reported: 28.1 µM (inactive)

// GI50 lookup, key: `C/C(=C\CO)CC[C@@H]1[C@@]2(C)CCCC(C)(C)[C@@H]2CC[C@@]1(C)O` 23.4 µM (inactive)

// GI50 lookup, key: O=C1c2ccccc2C(=O)c2c1ccc1c2N=C(c2ccc(Br)cc2)CC(c2cccc3ccccc23)N1 (stereo not drawn) > 100 µM (inactive)

// GI50 lookup, key: `Cc1sc2nc3n(c(=O)c2c1C)N=CN(c1ccc(F)cc1)C3` > 100 µM (inactive)

// GI50 lookup, key: `COc1c(O)cc2c(c1O)C(=O)C1=C(CCCC1)C2=O` 7.24 µM (inactive)

// GI50 lookup, key: `CC(C)(C)c1ccnc(/N=C2\N/C(=N\c3cc(C(C)(C)C)ccn3)c3ccccc32)c1` 32 µM (inactive)

// GI50 lookup, key: COc1ccc(C2OC[C@H]3O[C@@H](OCc4ccccc4)[C@H](O)[C@@H](O)[C@@H]3O2)cc1 (stereo partly drawn) > 100 µM (inactive)

// GI50 lookup, key: C=C1C(=O)OC2/C=C(\C)C(O)CC(O)C(C)(O)CC(OC(=O)/C(C)=C/C)C12 (stereo not drawn) 44.6 µM (inactive)

// GI50 lookup, key: CC1(C)C2CCC13CS(=O)(=O)N1O[C@]13C(=O)O2 (stereo partly drawn) > 100 µM (inactive)

// GI50 lookup, key: `CSc1[nH]cnc1C(N)=S` > 100 µM (inactive)

// GI50 lookup, key: C=C1OC2OC(C)C(NC(=O)OCC(Cl)(Cl)Cl)C(OC(C)=O)C2O1 (stereo not drawn) > 100 µM (inactive)

// GI50 lookup, key: COc1ccc(C2OCCN2C)cc1 (stereo not drawn) > 100 µM (inactive)

// GI50 lookup, key: `O=C(NC(OCc1ccccc1)(C(F)(F)F)C(F)(F)F)OCc1ccccc1` 11.2 µM (inactive)

// GI50 lookup, key: `COc1ccc(NC(S)=Nc2cccc(C)n2)cc1` > 100 µM (inactive)

// GI50 lookup, key: `CN(C)CCNc1ccc(NCCN(C)C)c2c1C(=O)c1ncsc1C2=O` 15.2 µM (inactive)
